Each record here notes measured pIC50.
Measurement target: human recombinant PLK4 (Homo sapiens)
Sequence (O00444 whole entry): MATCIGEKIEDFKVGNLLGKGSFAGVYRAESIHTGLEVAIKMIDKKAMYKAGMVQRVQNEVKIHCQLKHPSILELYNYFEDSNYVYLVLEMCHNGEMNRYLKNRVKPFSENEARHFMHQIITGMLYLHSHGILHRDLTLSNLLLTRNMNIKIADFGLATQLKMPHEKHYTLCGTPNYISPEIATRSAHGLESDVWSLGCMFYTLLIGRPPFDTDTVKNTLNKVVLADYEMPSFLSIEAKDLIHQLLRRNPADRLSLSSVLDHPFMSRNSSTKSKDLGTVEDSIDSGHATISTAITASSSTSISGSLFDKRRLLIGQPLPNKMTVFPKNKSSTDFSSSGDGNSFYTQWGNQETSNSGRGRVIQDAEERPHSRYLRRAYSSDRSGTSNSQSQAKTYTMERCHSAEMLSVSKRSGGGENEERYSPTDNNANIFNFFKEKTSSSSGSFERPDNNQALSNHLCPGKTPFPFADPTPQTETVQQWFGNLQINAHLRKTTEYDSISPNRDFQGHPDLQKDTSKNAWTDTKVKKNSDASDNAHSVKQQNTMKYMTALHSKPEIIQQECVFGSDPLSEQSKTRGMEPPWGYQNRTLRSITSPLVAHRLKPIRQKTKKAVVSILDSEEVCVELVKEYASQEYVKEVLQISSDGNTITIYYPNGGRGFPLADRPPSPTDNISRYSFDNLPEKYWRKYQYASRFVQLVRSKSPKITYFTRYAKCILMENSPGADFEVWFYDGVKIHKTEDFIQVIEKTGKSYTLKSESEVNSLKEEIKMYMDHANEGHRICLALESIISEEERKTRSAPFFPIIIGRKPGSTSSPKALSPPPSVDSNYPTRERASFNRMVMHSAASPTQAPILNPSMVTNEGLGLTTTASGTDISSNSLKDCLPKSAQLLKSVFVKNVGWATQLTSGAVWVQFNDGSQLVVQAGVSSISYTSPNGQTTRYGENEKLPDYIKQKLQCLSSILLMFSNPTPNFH
Test description: PLK4 Biochemical Assay (ADP-Glo)
Protocol conditions: 0.5 nM PLK4, 8.0 μM ATP, 4.7 μM MBP, 6 hours at RT
pIC50: −log10 of the molar value.
Result type: pIC50

INSERT INTO measurements (compound, measurement_target, measured) VALUES
  ('COc1ccc2c(c1)[C@]1(C[C@H]1c1ccc3c(Nc4cc(-c5cnn(C)c5)ccc4OC)n[nH]c3c1)C(=O)N2 [Example 11]', 'human recombinant PLK4 (Homo sapiens)', 9.28),
  ('COc1ccc2c(c1)[C@]1(C[C@H]1c1ccc3c(Nc4cc(-c5ccsn5)ccc4OC)n[nH]c3c1)C(=O)N2 [Example 30]', 'human recombinant PLK4 (Homo sapiens)', 9.16),
  ('COc1ccc2c(c1)[C@]1(C[C@H]1c1ccc3c(Nc4nc(-c5cnco5)ncc4OC)n[nH]c3c1)C(=O)N2 [Example 40]', 'human recombinant PLK4 (Homo sapiens)', 9.55),
  ('COc1ccc2c(c1)[C@]1(C[C@H]1c1ccc3c(Nc4cc(-c5cocn5)cnc4OC)n[nH]c3c1)C(=O)N2 [Example 42]', 'human recombinant PLK4 (Homo sapiens)', 8.88),
  ('CCOc1cc(-n2cncn2)cnc1Nc1n[nH]c2cc([C@@H]3C[C@@]34C(=O)Nc3ccc(OC)cc34)ccc12 [Example 38]', 'human recombinant PLK4 (Homo sapiens)', 9.09);
